meta.source: ChEMBL document CHEMBL4265955

TEST: Cytotoxicity against human PBMC assessed as cell viability at 1 uM by MTT assay relative to control
Type: cell-based
STATED_CONDITIONS: PBMC (peripheral blood mononuclear cells), read-out: Activity
Measured viability at 1 µM values are reported for all entries that follow.

LINE_NOTATION	viability at 1 µM
COC(=O)[C@@]1(C)CCC[C@]2(C)c3c(O)c(O)cc(C(C)C)c3CC[C@@H]12	86.4%
COC(=O)[C@@]1(C)CCC[C@]2(C)C3=C(CC[C@@H]12)C(C(C)C)=CC(=O)C3=O	69.2%

* * *

System: T84
TEST: Antiproliferative activity against human T84 cells after 3 days by sulforhodamine B assay
Format: functional, cell-based
STATED_CONDITIONS: T84, 72 h
pIC50: −log10 of the molar value.
Readings of pIC50 for the listed compounds
MEASUREMENT_TYPE: pIC50

LINE_NOTATION	INEQUALITY_SIGN	NUMERIC_READOUT
COC(=O)[C@@]1(C)CCC[C@]2(C)c3c(O)c(O)cc(C(C)C)c3CC[C@@H]12	=	6.00
COC(=O)c1cc2c(cc1OC)[C@@]1(C)CCC[C@](C)(C(=O)OC)[C@@H]1CC2	<	4.40
COC(=O)c1cc(O)cc2c1CC[C@H]1[C@@](C)(C(=O)OC)CCC[C@]21C	<	4.40
COC(=O)[C@@]1(C)CCC[C@]2(C)c3cc(O)cc(C(C)C)c3CC[C@@H]12	=	4.52
COC(=O)[C@@]1(C)CCC[C@]2(C)C3=C(CC[C@@H]12)C(C(C)C)=CC(=O)C3=O	=	4.94
COC(=O)c1cc2c(cc1O)[C@@]1(C)CCC[C@](C)(C(=O)OC)[C@@H]1CC2	=	4.68
C=C(C)c1cc(O)cc2c1CC[C@H]1[C@@](C)(C(=O)OC)CCC[C@]21C	=	4.51
CC(=O)c1cc2c(cc1O)[C@@]1(C)CCC[C@](C)(CO)[C@@H]1CC2	=	5.11
O=c1[nH]cc(F)c(=O)[nH]1	=	5.47

* * *

TEST: Cytotoxicity against human PBMC assessed as cell viability at 2.5 uM by MTT assay relative to control
Assay type: cell-based
STATED_CONDITIONS: PBMC (peripheral blood mononuclear cells), read-out: Activity

LINE_NOTATION	viability at 2.5 µM
COC(=O)[C@@]1(C)CCC[C@]2(C)c3c(O)c(O)cc(C(C)C)c3CC[C@@H]12	81.3%
COC(=O)[C@@]1(C)CCC[C@]2(C)C3=C(CC[C@@H]12)C(C(C)C)=CC(=O)C3=O	64.7%

* * *

Recorded pIC50 for the following molecules
System: MCF7
TEST: Antiproliferative activity against human MCF7 cells after 3 days by sulforhodamine B assay
Type: functional, cell-based
STATED_CONDITIONS: MCF7, 72 h
pIC50: −log10 of the molar value.
MEASUREMENT_TYPE: pIC50

MOLECULE	ASSAY_TARGET	INEQUALITY_SIGN	NUMERIC_READOUT
COC(=O)[C@@]1(C)CCC[C@]2(C)c3cc(O)cc(C(C)C)c3CC[C@@H]12	MCF7	=	4.54
O=c1[nH]cc(F)c(=O)[nH]1 [FLUOROURACIL]	MCF7	=	5.11
COC(=O)c1cc2c(cc1O)[C@@]1(C)CCC[C@](C)(C(=O)OC)[C@@H]1CC2	MCF7	=	4.66
CC(=O)c1cc2c(cc1O)[C@@]1(C)CCC[C@](C)(CO)[C@@H]1CC2	MCF7	=	5.03
C=C(C)c1cc(O)cc2c1CC[C@H]1[C@@](C)(C(=O)OC)CCC[C@]21C	MCF7	=	4.58
COC(=O)c1cc(O)cc2c1CC[C@H]1[C@@](C)(C(=O)OC)CCC[C@]21C	MCF7	<	4.40
COC(=O)[C@@]1(C)CCC[C@]2(C)c3c(O)c(O)cc(C(C)C)c3CC[C@@H]12	MCF7	=	5.55
COC(=O)c1cc2c(cc1OC)[C@@]1(C)CCC[C@](C)(C(=O)OC)[C@@H]1CC2	MCF7	<	4.40
COC(=O)[C@@]1(C)CCC[C@]2(C)C3=C(CC[C@@H]12)C(C(C)C)=CC(=O)C3=O	MCF7	=	5.96
